Target: Adenosine 2a receptor (Homo sapiens, UniProt P29274)
Construct: expressed in transfected cells; host or cells: Chinese hamster ovary (CHO) cells, co-transfected with a CRE-SPAP reporter
Sequence (P29274 whole entry): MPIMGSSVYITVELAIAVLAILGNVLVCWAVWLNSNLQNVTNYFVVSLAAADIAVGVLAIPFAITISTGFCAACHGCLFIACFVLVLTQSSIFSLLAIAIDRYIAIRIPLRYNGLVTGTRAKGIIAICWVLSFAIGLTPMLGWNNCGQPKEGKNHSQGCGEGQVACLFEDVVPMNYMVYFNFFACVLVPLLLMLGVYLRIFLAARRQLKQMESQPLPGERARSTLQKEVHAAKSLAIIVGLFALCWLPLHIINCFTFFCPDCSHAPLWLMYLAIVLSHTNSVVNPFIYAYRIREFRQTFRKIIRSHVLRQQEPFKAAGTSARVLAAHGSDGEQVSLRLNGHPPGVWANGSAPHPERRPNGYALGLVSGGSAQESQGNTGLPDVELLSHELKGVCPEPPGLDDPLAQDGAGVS
Test: Agonist activity against adenosine 2a receptor subtype (CHO cells, cAMP response element/SPAP reporter)
Assay type: cell-based
Conditions: EC50 ratio to NECA; transfected CHO cells, basal cAMP reflected by SPAP
A2a (EC50 values as a ratio of that of NECA) reference
quantity: A2a (EC50 values as a ratio of that of NECA)

1. CCc1cc([C@H]2O[C@@H](n3cnc4c(NC(CC)CC)nc(NC5CCCC5)nc43)[C@H](O)[C@@H]2O)on1.O=CO; 20.06
2. CCc1cc(C2OC(n3cnc4c(NC5CCS(=O)(=O)CC5)nc(NCCNC(=N)N)nc43)C(O)C2O)on1 (stereo not shown); 6.89
3. CCc1cc(C2OC(n3cnc4c(NCC(c5ccccc5)c5ccccc5)nc(NCCN5CCOCC5)nc43)C(O)C2O)on1 (stereo not shown); 0.43
4. CCc1cc(C2OC(n3cnc4c(Nc5ccc(O)c(F)c5)nc(NCCN5CCCCC5)nc43)C(O)C2O)on1.O=CO.O=CO (stereo not shown); 2.07
5. CCc1cc(C2OC(n3cnc4c(NCc5ccccc5)nc(NCCc5cn(C)cn5)nc43)C(O)C2O)on1 (stereo not shown); 3.53
6. CCc1cc([C@H]2O[C@@H](n3cnc4c(NC5CCOCC5)nc(NCCN5CCCCC5)nc43)[C@H](O)[C@@H]2O)on1.O=CO.O=CO; 4.99
7. CCC(CC)Nc1nc(NCCc2cn(C)cn2)nc2c1ncn2C1OC(c2cc(C=NO)no2)C(O)C1O (stereo not shown); 7.26
8. CCc1cc([C@H]2O[C@@H](n3cnc4c(NCC(c5ccccc5)c5ccccc5)nc(N[C@H]5CC[C@H](N)CC5)nc43)[C@H](O)[C@@H]2O)on1.O=CO.O=CO (relative stereo); 2.41
9. CCc1cc([C@H]2O[C@@H](n3cnc4c(NCCC(C)(C)C)nc(NCCc5cn(C)cn5)nc43)[C@H](O)[C@@H]2O)on1.O=CO.O=CO; 0.35
10. CCc1cc([C@H]2O[C@@H](n3cnc4c(NC5CCOCC5)nc(NCCc5ccccn5)nc43)[C@H](O)[C@@H]2O)on1.O=CO.O=CO; 3.03
11. CCc1cc([C@@H]2O[C@H](n3cnc4c(NC5CCSCC5)nc(NCCc5ccccn5)nc43)[C@@H](O)[C@H]2O)on1.O=CO.O=CO; 4.58
12. CCc1cc([C@H]2O[C@@H](n3cnc4c(NCCC(C)(C)C)nc(NCCN5CCCCC5)nc43)[C@H](O)[C@@H]2O)on1.O=CO.O=CO; 27.39
13. CCC(CC)Nc1nc(NCCN2CCCCC2)nc2c1ncn2[C@@H]1O[C@H](c2cc(C(C)O)no2)[C@@H](O)[C@H]1O.O=CO.O=CO (stereo partly shown); 0.066

---

Target: Adenosine 1 receptor (Homo sapiens, UniProt P30542)
Construct: expressed in transfected cells; host or cells: Chinese hamster ovary (CHO) cells, co-transfected with a CRE-SPAP reporter
Sequence (P30542 1-326): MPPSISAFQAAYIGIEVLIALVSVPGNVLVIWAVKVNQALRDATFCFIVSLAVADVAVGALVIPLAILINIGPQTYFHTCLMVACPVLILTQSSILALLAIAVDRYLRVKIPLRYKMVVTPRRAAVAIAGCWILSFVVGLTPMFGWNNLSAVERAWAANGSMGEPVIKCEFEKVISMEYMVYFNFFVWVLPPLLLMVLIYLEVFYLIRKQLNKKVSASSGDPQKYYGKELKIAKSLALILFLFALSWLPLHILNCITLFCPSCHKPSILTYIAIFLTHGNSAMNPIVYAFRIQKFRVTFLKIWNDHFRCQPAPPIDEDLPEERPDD
Assay: Agonist activity against adenosine 1 receptor subtype (CHO cells, forskolin-enhanced cAMP, SPAP reporter)
Assay type: cell-based
Conditions: EC50 ratio to NECA; transfected CHO cells, forskolin-enhanced cAMP reflected by SPAP
quantity: A1 (EC50 values as a ratio of that of NECA)

1. CCc1cc(C2OC(n3cnc4c(NCCS(=O)(=O)NC)nc(NCCN5CCCCC5)nc43)C(O)C2O)on1 (centres unmarked); 32.9
2. CCc1cc(C2OC(n3cnc4c(NCCC5CCCCC5)nc(NC(CO)Cc5ccccc5)nc43)C(O)C2O)on1 (centres unmarked); 8026.2
3. CCc1cc(C2OC(n3cnc4c(NC(CO)C(C)C)nc(NC(CO)Cc5ccccc5)nc43)C(O)C2O)on1 (centres unmarked); 23.79
4. CCc1cc(C2OC(n3cnc4c(NCCC(C)(C)C)nc(NCCN5CCOCC5)nc43)C(O)C2O)on1 (centres unmarked); 1369.08
5. CCCc1cc(C2OC(n3cnc4c(NC(CC)CC)nc(NCCN5CCCCC5)nc43)C(O)C2O)on1.O=CO.O=CO (centres unmarked); 101.31
6. CCc1cc(C2OC(n3cnc4c(NC(CO)Cc5ccccc5)nc(NCCN5CCCCC5)nc43)C(O)C2O)on1 (centres unmarked); 54.04
7. CCC(CC)Nc1nc(NCCN2CCCCC2)nc2c1ncn2C1OC(c2cc(C)no2)C(O)C1O.O=CO.O=CO (centres unmarked); 155.3
8. CCc1cc([C@H]2O[C@@H](n3cnc4c(NCCC(C)(C)C)nc(NCCN5CCCCC5)nc43)[C@H](O)[C@@H]2O)on1.O=CO.O=CO; 2907.96
9. CCc1cc(C2OC(n3cnc4c(NC(CC)CC)nc(NC5CCN(Cc6ccccc6)C5)nc43)C(O)C2O)on1 (centres unmarked); 28.28
10. CCC(CC)Nc1nc(NCCN2CCCCC2)nc2c1ncn2C1OC(c2cc(Br)no2)C(O)C1O.O=CO.O=CO (centres unmarked); 219.1
11. CCc1cc([C@H]2O[C@@H](n3cnc4c(NC5CCOCC5)nc(NCCN5CCCCC5)nc43)[C@H](O)[C@@H]2O)on1.O=CO.O=CO; 77.1
12. CCc1cc(C2OC(n3cnc4c(NC5CCS(=O)(=O)CC5)nc(NCCN5CCCCC5)nc43)C(O)C2O)on1.O=CO.O=CO (centres unmarked); 577.2
13. CCc1cc(C2OC(n3cnc4c(NC5CCS(=O)(=O)CC5)nc(NCCNC(=N)N)nc43)C(O)C2O)on1 (centres unmarked); 273.3

---

Biological target: Adenosine 1 receptor (Homo sapiens, UniProt P30542)
Construct: expressed in transfected cells; host or cells: Chinese hamster ovary (CHO) cells, co-transfected with a CRE-SPAP reporter
Test: Agonist activity against adenosine 1 receptor subtype (CHO cells, forskolin-enhanced cAMP, SPAP reporter)
Type: cell-based
Conditions: EC50 ratio to NECA; transfected CHO cells, forskolin-enhanced cAMP reflected by SPAP
A1 (EC50 values as a ratio of that of NECA) reference
quantity: A1 (EC50 values as a ratio of that of NECA)

1) CCC(CC)Nc1nc(NCCN2CCCCC2)nc2c1ncn2C1OC(c2cc(CO)no2)C(O)C1O.O=CO.O=CO (stereo not shown) [Example 57]; 80.76
2) CCC(CC)Nc1nc(NCCc2cn(C)cn2)nc2c1ncn2[C@@H]1O[C@H](c2cc(C(C)O)no2)[C@@H](O)[C@H]1O.O=CO.O=CO (stereo partly shown) [Example 58]; 812.2
3) CCc1cc(C2OC(n3cnc4c(NCCc5ccccc5)nc(NCCN5CCCCC5)nc43)C(O)C2O)on1.O=CO.O=CO (stereo not shown) [Example 3]; 231
4) CCc1cc([C@H]2O[C@@H](n3cnc4c(NC(CC)CC)nc(NC5CCOCC5)nc43)[C@H](O)[C@@H]2O)on1.O=CO [Example 48]; 177.71

---

Target: Adenosine 1 receptor (Homo sapiens)
Construct: expressed in transfected cells; host or cells: Chinese hamster ovary (CHO) cells, co-transfected with a CRE-SPAP reporter
Sequence (P30542 1-326): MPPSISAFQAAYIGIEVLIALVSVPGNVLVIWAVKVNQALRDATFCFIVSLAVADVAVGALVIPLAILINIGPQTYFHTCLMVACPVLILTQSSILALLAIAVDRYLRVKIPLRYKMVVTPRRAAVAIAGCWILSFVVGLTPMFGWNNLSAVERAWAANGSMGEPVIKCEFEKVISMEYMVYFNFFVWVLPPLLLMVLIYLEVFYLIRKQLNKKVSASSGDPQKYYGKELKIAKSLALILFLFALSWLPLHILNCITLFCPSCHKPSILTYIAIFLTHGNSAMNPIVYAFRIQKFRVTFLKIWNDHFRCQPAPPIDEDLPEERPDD
Assay: Agonist activity against adenosine 1 receptor subtype (CHO cells, forskolin-enhanced cAMP, SPAP reporter)
Format: cell-based
Conditions: EC50 ratio to NECA; transfected CHO cells, forskolin-enhanced cAMP reflected by SPAP
quantity: A1 (EC50 values as a ratio of that of NECA)

1. CCc1cc(C2OC(n3cnc4c(NC(CO)C(C)C)nc(NCCNc5ccccn5)nc43)C(O)C2O)on1 (stereo not shown); 79.51
2. CCc1cc(C2OC(n3cnc4c(NC5CCOCC5)nc(NC(CO)Cc5ccccc5)nc43)C(O)C2O)on1 (stereo not shown); 26.05
3. CCc1cc(C2OC(n3cnc4c(NC(CC)CC)nc(NC5CCC(N)CC5)nc43)C(O)C2O)on1.O=CO.O=CO (stereo not shown); 86.8
4. CCc1cc([C@H]2O[C@@H](n3cnc4c(NCC(c5ccccc5)c5ccccc5)nc(NCCO)nc43)[C@H](O)[C@@H]2O)on1.O=CO; 109.3
5. CCc1cc(C2OC(n3cnc4c(N)nc(NCCc5ccc(S(N)(=O)=O)cc5)nc43)C(O)C2O)on1 (stereo not shown); 2580
6. CCc1cc(C2OC(n3cnc4c(NCc5ccccc5)nc(NCCN5CCCCC5)nc43)C(O)C2O)on1.O=CO.O=CO (stereo not shown); 725.4
7. CCc1cc(C2OC(n3cnc4c(NC(CO)Cc5ccccc5)nc(NCCN5CCOCC5)nc43)C(O)C2O)on1 (stereo not shown); 22.53
8. CCc1cc([C@H]2O[C@@H](n3cnc4c(NC5CCSCC5)nc(NCCN5CCCCC5)nc43)[C@H](O)[C@@H]2O)on1.O=CO.O=CO; 260.3
9. CCc1cc(C2OC(n3cnc4c(NCC(c5ccccc5)c5ccccc5)nc(NC5CCC(NC(C)=O)CC5)nc43)C(O)C2O)on1 (stereo not shown); 573.6
10. CCc1cc(C2OC(n3cnc4c(NC5CCS(=O)(=O)CC5)nc(NC5CCC(N)CC5)nc43)C(O)C2O)on1 (stereo not shown); 31.75
11. CCc1cc([C@@H]2O[C@H](n3cnc4c(NC5CCSCC5)nc(NCCc5ccccn5)nc43)[C@@H](O)[C@H]2O)on1.O=CO.O=CO; 108.8
12. CCc1cc(C2OC(n3cnc4c(NCc5cccc(I)c5)nc(NCCc5cn(C)cn5)nc43)C(O)C2O)on1.O=CO.O=CO (stereo not shown); 310.9
13. CCc1cc(C2OC(n3cnc4c(NC(CC)CC)nc(NCCNC(=N)N)nc43)C(O)C2O)on1 (stereo not shown); 70.53
14. CCc1cc(C2OC(n3cnc4c(NCC(c5ccccc5)c5ccccc5)nc(NCCN5CCOCC5)nc43)C(O)C2O)on1 (stereo not shown); 88.9
15. CCC(CC)Nc1nc(NCCN2CCCCC2)nc2c1ncn2[C@@H]1O[C@H](c2cc(C(C)O)no2)[C@@H](O)[C@H]1O.O=CO.O=CO (stereo partly shown); 10.18
16. CCc1cc(C2OC(n3cnc4c(NC(CO)Cc5ccccc5)nc(NCCN)nc43)C(O)C2O)on1 (stereo not shown); 44.21
17. CCc1cc(C2OC(n3cnc4c(NC5CCSCC5)nc(NCCNC(=N)N)nc43)C(O)C2O)on1 (stereo not shown); 132.3
18. CCc1cc(C2OC(n3cnc4c(NC(CO)Cc5ccccc5)nc(NCCN5CCCC5)nc43)C(O)C2O)on1 (stereo not shown); 148.43
19. CCc1cc(C2OC(n3cnc4c(NCC(c5ccccc5)c5ccccc5)nc(NC(CO)Cc5ccccc5)nc43)C(O)C2O)on1 (stereo not shown); 1172
20. CCc1cc([C@H]2O[C@@H](n3cnc4c(NC(CC)CC)nc(NCCc5cn(C)cn5)nc43)[C@H](O)[C@@H]2O)on1.O=CO.O=CO; 30.1
21. CCc1cc(C2OC(n3cnc4c(NCCS(=O)(=O)NC)nc(NCCNC(=N)N)nc43)C(O)C2O)on1 (stereo not shown); 103.8
22. CCc1cc(C2OC(n3cnc4c(NC5CCCC5)nc(NCCN5CCCCC5)nc43)C(O)C2O)on1 (stereo not shown); 49.1
23. CCc1cc(C2OC(n3cnc4c(Nc5ccc(O)c(F)c5)nc(NCCN5CCCCC5)nc43)C(O)C2O)on1.O=CO.O=CO (stereo not shown); 59.38
24. CCc1cc(C2OC(n3cnc4c(NC(CC)CC)nc(NC(CO)Cc5ccccc5)nc43)C(O)C2O)on1 (stereo not shown); 89.16
25. CCc1cc([C@H]2O[C@@H](n3cnc4c(NC(CC)CC)nc(NC5CCCC5)nc43)[C@H](O)[C@@H]2O)on1.O=CO; 148.72
26. CCc1cc(C2OC(n3cnc4c(NC(CC)CC)nc(NCCN5CCOCC5)nc43)C(O)C2O)on1.O=CO.O=CO (stereo not shown); 44.1
